Tested on: Bacillus subtilis
Assay: cleaved RNA product abundance (RNA/gDNA barcode ratio) relative to median wild-type variant (ratio to wild type); higher = more accumulation of the downstream cleavage product
Conditions: experiment (reporter, strain, medium): exp 2b: truncated aprE reporter, strain BJT200; cleavage site: cggR-gapA (positions -7 to +36 mutated)
cleaved RNA product abundance vs 0.1: at or above is Met, below is Not met.

Recorded results for 3 sequences are shown here.
Input line: # bool: cleaved RNA product abundance of ACAGACGAAGGAGCCGCAAAGAAGTTATTAAGTGATGAATCATCCCTCAATATAAATATCTCTCACTTATTTAAA >= 0.1
Output line: Met

Input line: Same again, this time with ACAGACGAAGGAGCCGCACATAAGTTATTAAGGGATGAATAATCCCTCAATATAAATATCTCTCACTTATTTAAA
Output line: Met

Input line: Same again, this time with ACAGACGAAGGAGCCGCAAAGAAGTTTTTAAGGGATGAATAATTCCTCAATATAAATATCTCTCACTTATTTAAA
Output line: Met

Next:
Input line: # bool: cleaved RNA product abundance of ACAGACGAAGGAGCCGCAAAGAAGTTATTAAGGAATGAGTAATCCCTCAATATAAATATCTCTCACTTATTTAAA >= 0.1
Output line: Met

Input line: Same again, this time with ACAGACGAAGGAGCCGCAAATAAGTTATTAAGGGATGAACAATCCCTCAATATAAATATCTCTCACTTATTTAAA
Output line: Met

Input line: Same again, this time with ACAGACGAAGGAGCCGCAAAGTAGTTATTAAGGGATGAATATTCCCTCAATATAAATATCTCTCACTTATTTAAA
Output line: Met

Input line: Same again, this time with ACAGACGAAGGAGCCGCAAAGAAGTTATTAAGCGATGAATAATCCCCCAATATAAATATCTCTCACTTATTTAAA
Output line: Not met

Input line: Same again, this time with ACAGACGAAGGAGCCGCAAAGAAGTTATTAAGGGATGAATTATACCTCAATATAAATATCTCTCACTTATTTAAA
Output line: Met

Input line: Same again, this time with ACAGACGAAGGAGCCGCAAAGAAGTTATTAAGTGATTAATAATCCCTCAATATAAATATCTCTCACTTATTTAAA
Output line: Met

Input line: Same again, this time with ACAGACGAAGGAGCCGCAAAAAAGTAATTAAGGGATGAATAATCCCTCAATATAAATATCTCTCACTTATTTAAA
Output line: Met

Input line: Same again, this time with ACAGACGAAGGAGCCGCAAAGAAGTTATTAAGGGATGAATAATGCCTCTATATAAATATCTCTCACTTATTTAAA
Output line: Met

Input line: Same again, this time with ACAGACGAAGGAGCCGCAAAGAAGTTATTAAGTGATGTATAATCCCTCAATATAAATATCTCTCACTTATTTAAA
Output line: Not met

Input line: Same again, this time with ACAGACGAAGGAGCCGCAAAAAAGTTATTAAAGGATGAATAATCCCTCAATATAAATATCTCTCACTTATTTAAA
Output line: Met

Input line: Same again, this time with ACAGACGAAGGAGCCGCAAAGAAGTTATTAAAGGATGAATGATCCCTCAATATAAATATCTCTCACTTATTTAAA
Output line: Not met

Input line: Same again, this time with ACAGACGAAGGAGCCGCAAAGAAGTTATAAAGGGATGAATAATCCCTCAATATAAAAATCTCTCACTTATTTAAA
Output line: Met

Input line: Same again, this time with ACAGACGAAGGAGCCGCAAAGAAGTAATTAAGGGTTGAATAATCCCTCAATATAAATATCTCTCACTTATTTAAA
Output line: Not met

Input line: Same again, this time with ACAGACGAAGGAGCCGCAAAGAAGTTATTAAAGGATGAATAATCCCTCAATGTAAATATCTCTCACTTATTTAAA
Output line: Not met
